Quick list: MFI per entry.
Target: human DLL3 protein expressed on CHO-K1 recombinant cells (human DLL3 extracellular segment fused to EpCAM transmembrane and intracellular regions) (human) (UniProt Q9NYJ7)
Sequence (Q9NYJ7 other isoform, or with tags, fused parts or gaps limits assumed): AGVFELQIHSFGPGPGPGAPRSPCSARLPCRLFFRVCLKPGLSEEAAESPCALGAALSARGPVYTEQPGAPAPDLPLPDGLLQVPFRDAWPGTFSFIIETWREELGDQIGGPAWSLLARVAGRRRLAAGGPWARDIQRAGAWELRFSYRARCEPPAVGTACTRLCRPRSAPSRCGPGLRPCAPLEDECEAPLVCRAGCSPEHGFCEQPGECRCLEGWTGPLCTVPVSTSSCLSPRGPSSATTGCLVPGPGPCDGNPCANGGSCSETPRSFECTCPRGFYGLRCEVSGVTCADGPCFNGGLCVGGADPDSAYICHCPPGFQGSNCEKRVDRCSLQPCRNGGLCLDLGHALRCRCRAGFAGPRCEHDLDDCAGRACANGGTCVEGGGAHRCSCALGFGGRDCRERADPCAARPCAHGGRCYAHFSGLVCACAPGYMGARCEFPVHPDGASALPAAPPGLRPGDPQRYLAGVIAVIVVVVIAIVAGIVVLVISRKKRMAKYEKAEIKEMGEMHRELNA
Experiment: FACS, CHO-K1 hDLL3 cells, 0.16 nM antibody
Response body: numeric value in MFI, unit text excluded.

// known answers, use as guide
>>> observed("Hab015VL5VH1a-hFc (scFv, part only; not given: scFv linker and human IgG1 Fc, V domains shown, not shown: another chain or arm of the molecule; a dimerising Fc or GST; small tags and cut ends) VL: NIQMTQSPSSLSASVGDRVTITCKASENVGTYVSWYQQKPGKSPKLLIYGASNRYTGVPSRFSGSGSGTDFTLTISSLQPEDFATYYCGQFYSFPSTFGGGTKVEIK VH: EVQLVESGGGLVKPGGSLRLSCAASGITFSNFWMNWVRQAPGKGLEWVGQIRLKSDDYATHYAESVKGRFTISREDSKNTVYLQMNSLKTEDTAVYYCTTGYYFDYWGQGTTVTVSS")
936
>>> observed("Hab015VL5VH5a-hFc (scFv, part only; not given: scFv linker and human IgG1 Fc, V domains shown, not shown: another chain or arm of the molecule; a dimerising Fc or GST; small tags and cut ends) VL: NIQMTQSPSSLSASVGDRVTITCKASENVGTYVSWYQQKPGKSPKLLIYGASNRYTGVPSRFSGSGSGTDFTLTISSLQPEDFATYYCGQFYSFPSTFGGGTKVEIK VH: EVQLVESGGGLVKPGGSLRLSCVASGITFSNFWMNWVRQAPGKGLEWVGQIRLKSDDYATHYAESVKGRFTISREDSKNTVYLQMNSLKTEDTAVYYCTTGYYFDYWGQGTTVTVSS")
1030
>>> observed("Hab015VL5VH6a-hFc (scFv, part only; not given: scFv linker and human IgG1 Fc, V domains shown, not shown: another chain or arm of the molecule; a dimerising Fc or GST; small tags and cut ends) VL: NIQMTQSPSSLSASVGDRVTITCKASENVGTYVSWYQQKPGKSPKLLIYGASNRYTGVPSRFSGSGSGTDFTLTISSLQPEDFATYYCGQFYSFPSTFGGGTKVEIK VH: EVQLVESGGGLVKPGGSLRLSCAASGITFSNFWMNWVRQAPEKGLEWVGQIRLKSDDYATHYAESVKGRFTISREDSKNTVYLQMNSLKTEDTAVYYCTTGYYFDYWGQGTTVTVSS")
883
>>> observed("Hab009VL2aVH1-hFc (scFv, part only; not given: VL-VH linker and human IgG1 Fc, V domains shown, not shown: another chain or arm of the molecule; a dimerising Fc or GST; small tags and cut ends) VL: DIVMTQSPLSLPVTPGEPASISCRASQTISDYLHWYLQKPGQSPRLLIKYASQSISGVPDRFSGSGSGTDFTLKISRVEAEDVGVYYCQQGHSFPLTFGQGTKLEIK VH: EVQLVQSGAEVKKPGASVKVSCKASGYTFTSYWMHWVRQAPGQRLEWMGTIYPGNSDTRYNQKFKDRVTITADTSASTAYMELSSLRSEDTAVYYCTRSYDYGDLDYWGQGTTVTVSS")
5930
>>> observed("Hab015VL5VH1b-hFc (scFv, part only; not given: VL-VH linker and human IgG1 Fc, V domains shown, not shown: another chain or arm of the molecule; a dimerising Fc or GST; small tags and cut ends) VL: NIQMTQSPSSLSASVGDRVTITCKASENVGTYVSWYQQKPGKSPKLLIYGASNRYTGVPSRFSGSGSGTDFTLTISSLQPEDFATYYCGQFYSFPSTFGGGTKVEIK VH: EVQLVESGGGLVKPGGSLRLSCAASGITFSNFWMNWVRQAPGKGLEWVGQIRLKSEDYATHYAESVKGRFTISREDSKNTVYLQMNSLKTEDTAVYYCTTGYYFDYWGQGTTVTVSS")
980
>>> observed("Hab013VL2VH2a-hFc (scFv, part only; not given: scFv linker and human IgG1 Fc, V domains shown, not shown: another chain or arm of the molecule; a dimerising Fc or GST; small tags and cut ends) VL: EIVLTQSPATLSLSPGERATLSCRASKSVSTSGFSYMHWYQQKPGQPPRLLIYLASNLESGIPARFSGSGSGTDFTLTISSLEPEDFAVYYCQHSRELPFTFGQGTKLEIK VH: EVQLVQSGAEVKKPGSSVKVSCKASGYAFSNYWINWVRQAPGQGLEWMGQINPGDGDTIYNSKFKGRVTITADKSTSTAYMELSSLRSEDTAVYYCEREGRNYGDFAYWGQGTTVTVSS")
3190

# query: MFI of entry BI3 (antibody, human IgG1, kappa, V domains shown) VH: QVQLVQSGAEVKKPGASVKVSCKASGYTFTSYYVHWVRQAPGQGLEWMVIINPGGGTTSYAQKFLGRVTMTRDTSTNTVYMELKSLRSEDTAVYYCARGEAVTGNYFYYGMDVWGQGTTVTVSS VL: DIQMTQSPSAMSASVGDRVTITCRASQGISNYLVWFQQKPGKAPKRLIYAVSSLYSGVPSRFSGSGSGTEFTLTISSLQPEDFATYYCLQHDSYPYTFGQGTKLEIKR 2660

# query: MFI of entry Hab015VL4VH6a-hFc (scFv, part only; not given: scFv linker and human IgG1 Fc, V domains shown, not shown: another chain or arm of the molecule; a dimerising Fc or GST; small tags and cut ends) VL: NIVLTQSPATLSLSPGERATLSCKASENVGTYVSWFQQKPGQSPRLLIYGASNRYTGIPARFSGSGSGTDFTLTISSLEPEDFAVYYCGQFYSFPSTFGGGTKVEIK VH: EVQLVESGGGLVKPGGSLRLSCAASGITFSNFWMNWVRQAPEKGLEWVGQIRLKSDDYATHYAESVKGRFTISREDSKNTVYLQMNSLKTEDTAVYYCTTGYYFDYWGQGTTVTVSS 861

# query: MFI of entry Hab014VL3VH1-hFc (scFv, part only; not given: VL-VH linker and human IgG1 Fc, V domains shown, not shown: another chain or arm of the molecule; a dimerising Fc or GST; small tags and cut ends) VL: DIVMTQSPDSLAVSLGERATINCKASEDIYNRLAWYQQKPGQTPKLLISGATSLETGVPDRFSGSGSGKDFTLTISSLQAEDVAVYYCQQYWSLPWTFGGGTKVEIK VH: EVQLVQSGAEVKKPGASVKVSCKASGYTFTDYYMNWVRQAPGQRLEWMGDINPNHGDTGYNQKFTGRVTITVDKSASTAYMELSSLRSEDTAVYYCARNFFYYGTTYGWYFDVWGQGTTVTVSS 2060

# query: MFI of entry Hab006VL1VH4-hFc (scFv, part only; not given: VL-VH linker and human IgG1 Fc, V domains shown, not shown: another chain or arm of the molecule; a dimerising Fc or GST; small tags and cut ends) VL: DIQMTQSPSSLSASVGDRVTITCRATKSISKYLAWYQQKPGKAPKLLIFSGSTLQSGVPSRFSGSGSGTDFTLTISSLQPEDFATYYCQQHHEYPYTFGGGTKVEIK VH: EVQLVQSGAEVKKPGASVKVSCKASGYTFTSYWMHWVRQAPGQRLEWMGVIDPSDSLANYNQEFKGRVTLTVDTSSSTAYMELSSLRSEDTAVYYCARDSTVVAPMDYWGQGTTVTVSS 3100
